experiment: Toxicity in African green monkey Vero cells; type: cell-based; settings: chlorocebus sabaeus
reported metric: CC50 (µM)
# number only, unit µM dropped from output

Consider the reported CC50 for these molecules:
O=C(/C=C/c1ccc([N+](=O)[O-])o1)c1ccc(Cl)cc1Cl; 417
O=C(/C=C/c1ccc([N+](=O)[O-])o1)c1ccc(OCc2cccc(Cl)c2)cc1; 307
COc1ccc(COc2ccc(C(=O)/C=C/c3ccc([N+](=O)[O-])o3)cc2)cc1; 311
O=C(/C=C/c1ccc([N+](=O)[O-])o1)c1ccco1; 776
COc1cc(C(=O)/C=C/c2ccc([N+](=O)[O-])o2)cc(OC)c1OC; 384

Sure, the documented CC50 for `O=C(/C=C/c1ccc([N+](=O)[O-])o1)c1ccc(F)cc1` is 463

Please fill in: CC50 reported for `O=C(/C=C/c1ccc([N+](=O)[O-])o1)c1ccc(N2CCN(Cc3ccccc3)CC2)cc1` = 299
